- SYSTEM UNDER TEST: Corticotropin-releasing factor receptor 2/Corticotropin-releasing factor-binding protein (Homo sapiens, UniProt P24387+Q13324)
- Sequence (Q13324 whole entry): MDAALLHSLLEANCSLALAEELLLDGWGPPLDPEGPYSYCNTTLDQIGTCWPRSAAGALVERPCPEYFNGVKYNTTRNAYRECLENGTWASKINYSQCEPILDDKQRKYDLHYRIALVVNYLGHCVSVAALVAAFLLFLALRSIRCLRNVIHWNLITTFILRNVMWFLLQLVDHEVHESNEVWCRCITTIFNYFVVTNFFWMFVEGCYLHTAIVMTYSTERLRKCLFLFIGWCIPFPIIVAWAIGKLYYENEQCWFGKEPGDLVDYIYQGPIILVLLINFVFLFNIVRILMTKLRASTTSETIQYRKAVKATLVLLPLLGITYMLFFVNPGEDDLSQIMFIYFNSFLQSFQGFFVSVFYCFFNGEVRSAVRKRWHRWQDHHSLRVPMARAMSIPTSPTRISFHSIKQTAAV
- Sequence (P24387 whole entry): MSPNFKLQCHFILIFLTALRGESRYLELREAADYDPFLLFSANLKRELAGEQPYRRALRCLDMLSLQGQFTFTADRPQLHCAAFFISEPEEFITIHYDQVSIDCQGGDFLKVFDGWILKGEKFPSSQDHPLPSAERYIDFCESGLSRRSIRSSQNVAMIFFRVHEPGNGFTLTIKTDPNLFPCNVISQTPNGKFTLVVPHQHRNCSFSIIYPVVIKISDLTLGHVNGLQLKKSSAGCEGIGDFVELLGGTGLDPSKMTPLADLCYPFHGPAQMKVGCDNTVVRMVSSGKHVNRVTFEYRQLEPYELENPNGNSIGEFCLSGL
- ASSAY METHOD TEXT: activators of CRF receptor 2 with binding protein – uHTS hits, confirmation (AID 602473)
- Type: functional
- STUDY CONDITIONS: read-out: EC50_Mean
Active and inactive are the calls of the source.
Respond using exactly one of the listed classes: 1 (active), -1 (inactive)

Solved cases below.
{"columns": ["COMPOUND", "CATEGORY"],
 "data": [
  ["O=C(NNC(=S)NC(=O)c1ccc(Br)cc1)c1ccc([N+](=O)[O-])cc1", 1],
  ["C=C(C)CSc1nc(N)c2c3c(sc2n1)CCC3", -1],
  ["COC(=O)c1ccc(CSc2nc3ccccc3c(=O)n2-c2ccccc2)o1", -1],
  ["COc1cccc(CN(C)C(=O)c2cccc(S(=O)(=O)N3CCN(c4ccccc4)CC3)c2)c1OC", -1],
  ["Cc1c(NC2=C(Cl)C(=O)N(c3ccccc3Cl)C2=O)c(=O)n(-c2ccccc2)n1C", -1],
  ["Cc1ccccc1-n1c(CSC(=N)N)nc2ccccc2c1=O", -1],
  ["CN1C(=O)C(=Cc2ccc(N3CCOCC3)o2)C(=O)N(C)C1=S", 1],
  ["O=C(NC(=O)c1ccccc1O)c1ccc(C(F)(F)F)cc1", 1],
  ["CCn1c(SCC(=O)NC2CC2)nnc1-c1ccncc1", -1],
  ["CCCn1cc(S(=O)(=O)c2ccccc2)c(=O)c2cc(OCC)ccc21", -1]
]}

Please find the next compound below.
Q: Kindly provide the recorded test outcome for the following compound: CC1CC(C)CN(C2CCCCC2NS(=O)(=O)c2ccc(Cl)cc2)C1 (stereo unspecified)
Ans: 1

---

Parameter Ki: see the listing below.
- SYSTEM UNDER TEST: fMet-Leu-Phe receptor (Homo sapiens)
- Sequence (P21462 whole entry): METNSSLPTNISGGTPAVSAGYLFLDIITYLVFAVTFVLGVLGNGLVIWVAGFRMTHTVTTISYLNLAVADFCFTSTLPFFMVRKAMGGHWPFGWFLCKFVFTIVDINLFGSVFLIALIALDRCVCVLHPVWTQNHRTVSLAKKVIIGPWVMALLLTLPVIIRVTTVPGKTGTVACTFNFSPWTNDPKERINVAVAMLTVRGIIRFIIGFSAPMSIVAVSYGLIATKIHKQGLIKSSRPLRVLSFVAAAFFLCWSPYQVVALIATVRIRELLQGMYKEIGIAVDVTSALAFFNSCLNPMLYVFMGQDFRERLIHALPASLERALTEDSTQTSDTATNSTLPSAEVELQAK
- ASSAY METHOD TEXT: formyl peptide receptor binders – dose response (AID 519)
- Assay type: functional
Calls of active or inactive are those of the source.

Worked set:
{"columns": ["COMPOUND", "Ki"],
 "data": [
  ["COc1cccc(OC)c1/C(O)=C(\\C#N)c1nc2ccccc2[nH]1", "> 66.7 µM (inactive)"],
  ["N[C@@H](Cc1ccc(O)c(I)c1)C(=O)O", "> 66.7 µM (inactive)"],
  ["COCCN1C(=O)C(O)=C(C(=O)c2cccs2)C1c1ccccc1 (centres undefined)", "> 66.7 µM (inactive)"]
]}

Could you now look at the following compound, please?
Q: Request the reported Ki associated with CCOC(=O)c1sc(=S)n2c1[nH]c(=O)c1ccc(C(=O)OC)cc12
Ans: > 66.7 µM (inactive)

---

Parameter AC50: see the listing below.
- SYSTEM UNDER TEST: Heat shock protein HSP 90-alpha (Homo sapiens, UniProt P07900)
- Type: functional, organism-based
Activity calls are given as the source filed them.

{"columns": ["COMPOUND", "AC50"],
 "data": [
  ["Cc1ccc(NC(S)=NCC23C=CC(O2)C2C(=O)N(c4ccc(C)cc4)C(=O)C23)cc1 (stereo unspecified)", "4.6 µM (active)"],
  ["O=C(O)c1ccccc1NC(c1ccccc1)c1ccc2cccnc2c1O (stereo unspecified)", "7.23 µM (active)"],
  ["Cc1ccc2[nH]c(C)c(/C=N/Nc3nc4ccccc4s3)c2c1", "5.3 µM (active)"],
  ["CCOC(=O)C1=C(N)N2C(=O)C(C)SC2=C(C(=O)OC)C1c1ccccc1OC (stereo unspecified)", "0.982 µM (active)"],
  ["Cc1ccc(N2C(=O)C3C4C=CC(CN=C(S)N5CCN(c6ccccc6)CC5)(O4)C3C2=O)cc1 (stereo unspecified)", "14.9 µM (active)"]
]}

Could you now look at the following compound, please?
Q: Form field - read-out: AC50; system: Heat shock protein HSP 90-alpha (Homo sapiens, UniProt P07900); submitted item: O=C1C=CC(=O)N1CCNc1ncc(C(F)(F)F)cc1Cl
Ans: 0.482 µM (active)

---

- SYSTEM UNDER TEST: UniProt:P55789
- Sequence (P55789 whole entry): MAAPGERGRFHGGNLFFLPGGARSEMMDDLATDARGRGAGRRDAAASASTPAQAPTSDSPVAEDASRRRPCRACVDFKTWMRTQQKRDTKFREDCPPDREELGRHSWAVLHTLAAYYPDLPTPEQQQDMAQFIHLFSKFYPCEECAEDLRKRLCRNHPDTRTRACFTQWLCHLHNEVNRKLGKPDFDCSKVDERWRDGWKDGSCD
- ASSAY METHOD TEXT: ALR-catalysed DTT oxidation blockers – biochemical, H2O2 detection, luminescence, cherry-pick, dose response (AID 493248)
Activity calls are given as the source filed them.
OBSERVABLE: AC50

Worked set:
{"columns": ["COMPOUND", "SYSTEM UNDER TEST", "AC50"],
 "data": [
  ["Cc1ccc(N2CCN(C(=O)N3CCCC3)CC2)cc1Cl", "UniProt:P55789", "27.2 µM (active)"],
  ["COc1cccc(/C=N/n2c(S)nnc2-c2cc(C)[nH]n2)c1OC", "UniProt:P55789", "4.04 µM (active)"],
  ["CN(C)c1ccc(C(=O)NC2(N3CCC3=O)CCCC2)cc1", "UniProt:P55789", "2.55 µM (active)"]
]}

Q: Request the reported AC50 associated with COc1ccc(OC)c(Nc2c3c(nc4ccccc24)CCC3)c1
Ans: 16.2 µM (active)

Q: Request the reported AC50 associated with O=C1CSC(c2ccccn2)N1c1ccccc1 (centres undefined)
Ans: 0.225 µM (active)

Q: Request the reported AC50 associated with Sc1nnc(-c2ccccn2)n1/N=C/c1ccc(-c2ccccc2Cl)o1
Ans: 5.29 µM (active)

---

- System: Streptococcus sp. 'group A'
- ASSAY METHOD TEXT: Streptococcus pyogenes SK(-)GAS viability under kanamycin – luminescence, BacTiterGlo, confirmation, counter-screen for streptokinase expression inhibitor project, dose response (AID 1900)
- Type: functional, organism-based
Active and inactive are the calls of the source.
OBSERVABLE: EC50

Worked set:
{"columns": ["MOLECULE", "EC50"],
 "data": [
  ["O=C1C=CC(=O)N1CCNc1ncc(C(F)(F)F)cc1Cl", "10.4 µM (active)"],
  ["CCOc1ccc2[nH]c3c(N4CCc5ccccc5C4)ncnc3c2c1", "10.4 µM (active)"],
  ["Cc1ccc(C(=O)N2CCOCC2)cc1S(=O)(=O)N1CCOCC1", "> 150 µM (not active)"],
  ["Cn1c(Oc2ccccc2NCc2cc(Br)ccc2O)cc(=O)n(C)c1=O", "6.42 µM (active)"],
  ["CCOC(=O)c1sc(=S)n2c1[nH]c(=O)c1ccc(C(=O)OC)cc12", "6.34 µM (active)"]
]}

Could you now look at the following molecule, please?
Q: Request the reported EC50 associated with CCC(N=C(S)NC1CCCCC1)c1ccc(C(C)C)cc1 (stereo unspecified)
Ans: 10.7 µM (active)

---

- ASSAY METHOD TEXT: blockers of CRF-binding protein–CRF-R2 complex – cell-based, uHTS hits, 384-well, dose response (AID 651639)
- Type: functional, Homo sapiens
- STUDY CONDITIONS: read-out: IC50_Mean
Calls of active or inactive are those of the source.
Respond using exactly one of the listed classes: active, inactive

Solved cases below.
{"columns": ["SUBSTANCE SMILES", "CATEGORY"],
 "data": [
  ["Cc1ccc(S(=O)(=O)c2nnn3c2nc(N2CCOCC2)c2ccccc23)cc1C", "active"],
  ["O=C(NC(=O)c1ccccc1O)c1ccc(C(F)(F)F)cc1", "active"],
  ["CCOC(=O)c1ccc(/N=c2\\sc(C(=O)OC)cc(=O)n2CCCN2CCOCC2)cc1", "active"],
  ["COC(=O)c1ccc(CSc2nc3ccccc3c(=O)n2-c2ccccc2)o1", "active"],
  ["Cn1c(N)c(C(=O)COC(=O)CNS(=O)(=O)c2ccc(Cl)c(Cl)c2)c(=O)n(C)c1=O", "active"]
]}

Please find the next compound below.
Q: Kindly provide the recorded test outcome for the following compound: Cc1cc(OC(=O)c2cccs2)c2c3c(c(=O)oc2c1)CCCC3
Ans: inactive

---

- ASSAY METHOD TEXT: Luminescence Cell-Based Dose Response HTS to Identify Inhibitors of 5'UTR Stem-Loop Driven Prion Protein mRNA Translation in H4 Neuroglioblastoma Cells. [Related pubchem assays: 1827 (Project Summary), 1813 (Primary HTS)]
- Type: functional
The source made the active and inactive calls.
Parameter EC50: see the listing below.

{"columns": ["SUBSTANCE SMILES", "EC50"],
 "data": [
  ["CCCCCCc1nnc(N)s1", "> 120 µM (not active)"],
  ["CC1(C)Cc2c(sc(NC(=O)COc3ccc(Cl)cc3Cl)c2C(N)=O)C(C)(C)N1", "18.7 µM (active)"],
  ["CC(C)CCNc1nnnc2c1sc1nc(N3CCOCC3)c3c(c12)CC(C)(C)SC3", "> 120 µM (not active)"],
  ["Cc1cc(C)c(-c2csc(NC(=O)/C=C/c3cccs3)n2)c(C)c1", "21.5 µM (active)"],
  ["COc1cc(C)c(C(=O)CC(=O)c2c(C)cc(OC)cc2C)c(C)c1", "73.2 µM (active)"],
  ["O=C(O)c1ccc2cc(-c3ccccc3)[nH]c2c1", "11.8 µM (inconclusive)"]
]}

Q: Request the reported EC50 associated with CCN1C=CC(=C2C(=O)c3ccccc3C2=O)C=C1
Ans: < 0.1 µM (active)
